# credit: patent US20190071490A1

Target: T1, human α-CGRP 1-37 (WT) (human, C-terminal amide; N-terminal biotin when captured on the SA chip; 125I-labelled in the radioligand assay)
T1 construct: also called α-human
T1 peptide: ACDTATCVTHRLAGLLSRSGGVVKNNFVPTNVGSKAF
Test: Biacore, 37°C, Fab over CGRP on SA chip
Below is a list of entries, each paired with its recorded koff value.

{"columns": ["binder", "koff, s⁻¹"],
 "data": [
  ["G1 variant M76 Fab (Fab, V domains shown, Fab; constant domains as m1) VH: EVQLVESGGGLVQPGGSLRLSCAASGFTFSNYWISWVRQAPGKGLEWVAEIRSESDGSATHYAEAVKGRFTISRDNAKNSLYLQMNSLRAEDTAVYYCTVYFDYGLAIQNYWGQGTLVTVSS VL: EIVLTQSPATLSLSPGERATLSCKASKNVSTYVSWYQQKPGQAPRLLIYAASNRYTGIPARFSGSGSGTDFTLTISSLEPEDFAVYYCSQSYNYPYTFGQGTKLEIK", 0.000364],
  ["G1 variant M39 Fab (Fab, V domains shown, Fab; constant domains as m1) VH: EVQLVESGGGLVQPGGSLRLSCAASGFTFSNYWISWVRQAPGKGLEWVAEIRSESDNYATHYAEAVKGRFTISRDNAKNSLYLQMNSLRAEDTAVYYCTVYFDYGLAIQNYWGQGTLVTVSS VL: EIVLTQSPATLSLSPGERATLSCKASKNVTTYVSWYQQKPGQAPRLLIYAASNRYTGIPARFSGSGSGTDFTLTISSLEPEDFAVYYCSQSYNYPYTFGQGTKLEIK", 0.000425],
  ["G1 variant M72 Fab (Fab, V domains shown, Fab; constant domains as m1) VH: EVQLVESGGGLVQPGGSLRLSCAASGFTFSNYWISWVRQAPGKGLEWVAEIRSKSDASATHYAEAVKGRFTISRDNAKNSLYLQMNSLRAEDTAVYYCTVYFDYGLAIQNYWGQGTLVTVSS VL: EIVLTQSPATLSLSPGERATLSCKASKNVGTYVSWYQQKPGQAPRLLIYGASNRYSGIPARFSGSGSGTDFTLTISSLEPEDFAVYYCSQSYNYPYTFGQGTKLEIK", 0.0004],
  ["G1 variant M67 Fab (Fab, V domains shown, Fab; constant domains as m1; printed L561 read as L56I) VH: EVQLVESGGGLVQPGGSLRLSCAASGFTFSNYWISWVRQAPGKGLEWVAEIRSKSDFSATHYAEAVKGRFTISRDNAKNSLYLQMNSLRAEDTAVYYCTVYFDYGLAIQNYWGQGTLVTVSS VL: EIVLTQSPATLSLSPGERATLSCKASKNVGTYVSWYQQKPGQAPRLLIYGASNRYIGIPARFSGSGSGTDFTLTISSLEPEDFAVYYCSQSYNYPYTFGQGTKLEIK", 0.00082],
  ["G1 variant M15 Fab (Fab, V domains shown, Fab; constant domains as m1) VH: EVQLVESGGGLVQPGGSLRLSCAASGFTFSNYWISWVRQAPGKGLEWVAEIRSESDASATHYAEAVKGRFTISRDNAKNSLYLQMNSLRAEDTAVYYCTPYFDYGLAIQNYWGQGTLVTVSS VL: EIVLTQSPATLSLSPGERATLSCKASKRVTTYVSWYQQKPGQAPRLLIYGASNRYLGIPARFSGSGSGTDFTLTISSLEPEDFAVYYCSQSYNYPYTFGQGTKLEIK", "1.58e-05"],
  ["G1 variant M63 Fab (Fab, V domains shown, Fab; constant domains as m1) VH: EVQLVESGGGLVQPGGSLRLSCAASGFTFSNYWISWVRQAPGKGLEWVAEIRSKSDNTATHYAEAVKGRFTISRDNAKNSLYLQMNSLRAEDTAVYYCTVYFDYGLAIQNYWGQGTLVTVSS VL: EIVLTQSPATLSLSPGERATLSCKASKNVGTYVSWYQQKPGQAPRLLIYAASNRYLGIPARFSGSGSGTDFTLTISSLEPEDFAVYYCSQSYNYPYTFGQGTKLEIK", 0.0015],
  ["G1 variant M36 Fab (Fab, V domains shown, Fab; constant domains as m1) VH: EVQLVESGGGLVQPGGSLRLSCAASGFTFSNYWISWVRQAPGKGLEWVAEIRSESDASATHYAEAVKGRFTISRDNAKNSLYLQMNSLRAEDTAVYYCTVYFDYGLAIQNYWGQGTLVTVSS VL: EIVLTQSPATLSLSPGERATLSCKASKNVRTYVSWYQQKPGQAPRLLIYGASNRYLGIPARFSGSGSGTDFTLTISSLEPEDFAVYYCSQSYNYPYTFGQGTKLEIK", 0.000239],
  ["G1 variant M61 Fab (Fab, V domains shown, Fab; constant domains as m1) VH: EVQLVESGGGLVQPGGSLRLSCAASGFTFSNYWISWVRQAPGKGLEWVAEIRSQSDNSATFYAEAVKGRFTISRDNAKNSLYLQMNSLRAEDTAVYYCTVYFDYGLAIQNYWGQGTLVTVSS VL: EIVLTQSPATLSLSPGERATLSCKASKNVGTYVSWYQQKPGQAPRLLIYGHSNRYLGIPARFSGSGSGTDFTLTISSLEPEDFAVYYCSQSYNYPYTFGQGTKLEIK", 0.000459],
  ["G1 variant M80 Fab (Fab, V domains shown, Fab; constant domains as m1; printed L561 read as L56I) VH: EVQLVESGGGLVQPGGSLRLSCAASGFTFSNYWISWVRQAPGKGLEWVAEIRSKSDNVATHYAEAVKGRFTISRDNAKNSLYLQMNSLRAEDTAVYYCTVYFDYGLAIQNYWGQGTLVTVSS VL: EIVLTQSPATLSLSPGERATLSCKASKNVSTYVSWYQQKPGQAPRLLIYGASNRYIGIPARFSGSGSGTDFTLTISSLEPEDFAVYYCSQSYNYPYTFGQGTKLEIK", 0.00209],
  ["G1 variant M54 Fab (Fab, V domains shown, Fab; constant domains as m1) VH: EVQLVESGGGLVQPGGSLRLSCAASGFTFSNYWISWVRQAPGKGLEWVAEIRSKSDNPATHYAEAVKGRFTISRDNAKNSLYLQMNSLRAEDTAVYYCTVYFDYGLAIQNYWGQGTLVTVSS VL: EIVLTQSPATLSLSPGERATLSCKASKNVATYVSWYQQKPGQAPRLLIYAASNRYLGIPARFSGSGSGTDFTLTISSLEPEDFAVYYCSQSYNYPYTFGQGTKLEIK", 0.00179]
]}
